Ref: patent US7662767B2

Can you tell me Kassoc for the items I'm about to list?
# experimentalProtocol: Optical titration (absorbance) of acridine orange with xanthines/purines, Kassoc from delta absorbance
# Format: binding
# assaySetup: Table 2-2, Kassoc value with acridine orange (this report)
Report the figure in M⁻¹ without appending any unit label.

Quick one: Kassoc of Cn1c(=O)c2c(n(C)c1=O)n(C)c(=O)n2C ? 552

Try Cn1c(=O)c2[nH]cnc2n(C)c1=O next. 157

Try Cn1c(=O)[nH]c2ncn(C)c2c1=O next. 155

Try Cn1c(=O)c2c(ncn2C)n(C)c1=O next. 256

* * *

# Tested on: chicken erythrocyte nuclear chromatin
# experimentalProtocol: Removal of acridine orange from stained chicken erythrocyte nuclear chromatin by xanthine rinse, fluorescence microscopy
# assaySetup: AO [5 mM] 30 minutes, before xanthine rinse
quantity: Nuclear color, Stain

Cn1c(=O)c2c(ncn2C)n(C)c1=O: Red
Cn1c(=O)c2c(n(C)c1=O)n(C)c(=O)n2C: Red
Cn1c(=O)c2[nH]cnc2n(C)c1=O: Red
Cn1c(=O)c2[nH]cnc2n(C)c1=O.NCCN: Red

* * *

# Tested on: chicken erythrocyte nuclear chromatin
# experimentalProtocol: Removal of acridine orange from stained chicken erythrocyte nuclear chromatin by xanthine rinse, fluorescence microscopy
# assaySetup: AO [5 mM]; xanthine rinse 50 mM, 1 hour, static
quantity: Nuclear color, After Rinse

Cn1c(=O)c2c(ncn2C)n(C)c1=O [1,3,7-trimethyl xanthine (caffeine), 1,3,7-trimethyl xanthine]: Red-
Cn1c(=O)c2[nH]cnc2n(C)c1=O.NCCN [1,3-dimethyl xanthine ethylenediamine]: None
Cn1c(=O)c2c(n(C)c1=O)n(C)c(=O)n2C [1,3,7,9-tetramethyl-8-oxy xanthine]: None
Cn1c(=O)c2[nH]cnc2n(C)c1=O [1,3-dimethyl xanthine (theophylline), 1,3-dimethyl xanthine]: Red

* * *

Can you tell me blocking of AO intercalation for the items I'm about to list?
# System: chicken erythrocyte nuclear chromatin
# experimentalProtocol: Blocking of acridine orange intercalation into chicken erythrocyte nuclear chromatin, fluorescence microscopy
# Parameters: key: 0: no blocking effect; 1: slight blocking; 2: moderate blocking; 3: almost total blocking (very slight green fluorescence detectable); 4: complete blockage (no green fluorescence detectable)
# assaySetup: molar ratio 2500:1; exposure 10 min; 10 μM AO
# output: bare number, no unit

Quick one: blocking of AO intercalation of Cn1c(=O)c2[nH]cnc2n(C)c1=O.NCCN ? 1

Try Cn1c(=O)c2c(ncn2C)n(C)c1=O next. 0

Try Cn1c(=O)c2c(n(C)c1=O)n(C)c(=O)n2C next. 1

Try Cn1c(=O)c2[nH]cnc2n(C)c1=O next. 0
